Numbers sourced from patent US20110183969A1.

Please provide measured MIC for the entries that follow.
Test system: Aspergillus fumigatus AF293
Test: MIC (YAG medium)
Type: cell-based
Details: Aspergillus fumigatus; YAG medium; MIC banded into grades; AF293; read-out: MIC A. fumigatus (grade)

[ask] Quick one: MIC for Cc1cc(C)nc(N2CCN(c3ccc(NC(=O)C(=O)c4c(C(C)(C)C)cc5ccccn45)cc3)CC2)c1 ?
[reply] > 10 µg/mL

[ask] Name the reported MIC value associated with the molecule Cc1cc(C)nc(N2CCN(c3ccc(NC(=O)C(=O)c4c(-c5ccccc5)cc5ccccn45)cc3)CC2)c1
[reply] < 1 µg/mL

[ask] What value of MIC has been recorded for this entry: Cc1ccnc(N2CCN(c3ccc(NC(=O)C(=O)c4c(-c5ccccc5)cc5ccccn45)cc3)CC2)c1
[reply] < 1 µg/mL

###

Tested on: Aspergillus terreus AT4
Assay: MIC (YAG medium)
Format: cell-based
Details: Aspergillus terreus; YAG medium; MIC banded into grades; AT4; read-out: MIC A. terreus (grade)
quantityName: MIC

[ask] I am curious: what MIC value has been reported for O=C(Nc1ccc(N2CCN(c3cccnc3)CC2)cc1)C(=O)c1c(-c2ccccc2)cc2ccccn12 ?
[reply] < 1 µg/mL

[ask] So what's the measured MIC for this one? O=C(Nc1ccc(N2CCS(=O)(=O)CC2)cc1)C(=O)c1c(-c2ccccc2)cc2ccccn12
[reply] 1 to 10 µg/mL

[ask] // MIC lookup, key: CC(C)c1cc(NC(=O)C(=O)c2c(-c3ccccc3)cc3ccccn23)ccc1C(=O)OCCn1ccnc1C(C)C
[reply] 1 to 10 µg/mL

[ask] Entry O=C(Nc1ccc(N2CCN(S(=O)(=O)c3cccnc3)CC2)cc1)C(=O)c1c(-c2ccccc2)cc2ccccn12 : reported MIC = ?
[reply] < 1 µg/mL

[ask] // lookup MIC for CC(C)c1nc(C(C)(C)c2cccc(NC(=O)C(=O)c3c(-c4ccccc4)cc4ccccn34)c2)cn1C
[reply] 1 to 10 µg/mL

[ask] Any idea what its MIC is? The molecule is O=C(Nc1ccc(N2CCN(c3cccc(N(CCO)CCO)n3)CC2)cc1)C(=O)c1c(-c2ccccc2)cc2ccccn12
[reply] 1 to 10 µg/mL

[ask] // MIC lookup, key: CCC(CC)N1CCN(c2ccc(NC(=O)C(=O)c3c(-c4ccccc4Cl)cc4ccccn34)cn2)CC1
[reply] < 1 µg/mL

[ask] Suppose we examine the molecule Cc1cc(C)nc(N2CCN(c3ccc(NC(=O)C(=O)c4c(-c5ccccc5)cc5ccccn45)cc3C(=O)O)CC2)c1 ; what MIC value has been reported?
[reply] 1 to 10 µg/mL

[ask] # query: MIC of entry Cc1cc(C)nc(N2CCN(c3ccc(NC(=O)C(=O)c4c(C(C)(C)C)cc5ccccn45)cc3)CC2)c1
[reply] 1 to 10 µg/mL

[ask] Data request, read-out MIC, for Cc1cc(C)nc(N2CCN(c3cccc(NC(=O)C(=O)c4c(-c5ccccc5)cc5ccccn45)c3)CC2)c1
[reply] < 1 µg/mL

[ask] So what's the measured MIC for this one? CS(=O)(=O)NC(=O)c1ccc(NC(=O)C(=O)c2c(-c3ccccc3)cc3ccccn23)cc1
[reply] > 10 µg/mL

[ask] What value of MIC has been reported for the following molecule? Cc1cc(C)nc(N(C)CCNc2ccc(NC(=O)C(=O)c3c(-c4ccccc4)cc4ccccn34)cc2)c1
[reply] < 1 µg/mL

[ask] Given the molecule COCCN(C)c1ccc(N2CCN(c3ccc(NC(=O)C(=O)c4c(-c5ccccc5)cc5ccccn45)cc3)CC2)cn1 , what is its reported MIC?
[reply] < 1 µg/mL

[ask] Item under review: COCc1cc(N2CCN(c3cc(C)cc(C)n3)CC2)ccc1NC(=O)C(=O)c1c(-c2ccccc2)cc2ccccn12 . Reported MIC?
[reply] < 1 µg/mL

[ask] Which MIC value is on record for Cc1cc(C)nc(N(C)CCCN(C)c2ccc(NC(=O)C(=O)c3c(-c4ccccc4)cc4ccccn34)cc2)c1 ?
[reply] < 1 µg/mL

[ask] Given the entry CC1CN(C2CCN(c3ccc(NC(=O)C(=O)c4c(-c5ccccc5)cc5ccccn45)cc3)CC2)CC(C)O1 (centres unmarked) , report its measured MIC.
[reply] < 1 µg/mL

[ask] I have this molecule here, CC(C)c1ncc(C(C)(C)c2ccc(NC(=O)C(=O)c3c(-c4ccccc4)cc4ccccn34)cc2)n1C , and I need its recorded MIC.
[reply] 1 to 10 µg/mL

[ask] # lookup: MIC of Cc1cc(C)nc(N2CCN(c3ccc(NC(=O)C(=O)c4c(-c5ccccc5)cc5ccccn45)cc3C)CC2)c1
[reply] < 1 µg/mL

[ask] Look at this molecule and give its reported MIC. CC(C)c1ncc(C(C)(C)c2cccc(NC(=O)C(=O)c3c(-c4ccccc4)cc4ccccn34)c2)n1C
[reply] > 10 µg/mL

[ask] Reported MIC for Cc1cc(C)nc(N2CCN(c3ccc(NC(=O)C(=O)c4c(-c5ccccc5)cc5ccccn45)c(C)c3)CC2)c1 : what is it?
[reply] < 1 µg/mL

###

Test system: Aspergillus terreus AT4
Assay: MIC (YAG medium)
Type: cell-based
Details: Aspergillus terreus; YAG medium; MIC banded into grades; AT4; read-out: MIC A. terreus (grade)
quantityName: MIC

[ask] Value wanted: MIC (Aspergillus terreus AT4) of entry O=C(Nc1ccc(N2CCN(CC3CCOCC3)CC2)cc1)C(=O)c1c(-c2ccccc2)cc2ccc(F)cn12 [Example 53]
[reply] 1 to 10 µg/mL

[ask] Find MIC (Aspergillus terreus AT4) for the entry O=C(Nc1ccc(N2CCN(c3ccc(CN4CCOCC4)cc3)CC2)cc1)C(=O)c1c(-c2ccccc2)cc2ccccn12 [Example 56]
[reply] < 1 µg/mL

[ask] Query for Aspergillus terreus AT4: what MIC does the record show for O=C(Nc1ccc(N2CCC3(CC2)OCCO3)cc1)C(=O)c1c(-c2ccccc2)cc2ccccn12 [Example 23] ?
[reply] < 1 µg/mL

[ask] Could you share what MIC was measured for C=C(C)CN1CCN(c2ccc(NC(=O)C(=O)c3c(-c4ccc(N5CCOCC5)cc4)cc4ccccn34)cc2)CC1 [Example 40] , tested on Aspergillus terreus AT4?
[reply] > 10 µg/mL

[ask] Request body: readout MIC, system Aspergillus terreus AT4, query O=C(Nc1cnccc1N1CCN(CCc2ccco2)CC1)C(=O)c1c(-c2ccccc2)cc2ccccn12 [Example 38] . Return the value.
[reply] < 1 µg/mL

[ask] Enter reported MIC observed with Aspergillus terreus AT4 for Cc1cc(C)nc(N2CCCN(c3ccc(NC(=O)C(=O)c4c(-c5ccccc5)cc5ccccn45)cc3)CC2)c1 [Example 54]
[reply] < 1 µg/mL

[ask] Fill in the recorded MIC for this molecule, with Aspergillus terreus AT4 as test system: CN1CCN(c2oc(-c3ccc(NC(=O)C(=O)c4c(-c5ccccc5)cc5ccccn45)cc3)nc2C(=O)C(F)(F)F)CC1 [Example 29]
[reply] < 1 µg/mL

###

Tested on: Aspergillus fumigatus AF293
Test: MIC (YAG medium)
Format: cell-based
Conditions: Aspergillus fumigatus; YAG medium; MIC banded into grades; AF293; read-out: MIC A. fumigatus (grade)
quantityName: MIC

[ask] What MIC value was documented for this compound, O=C(Nc1ccc(N2CCN(c3cc(OCCO)ccn3)CC2)cc1)C(=O)c1c(-c2ccccc2)cc2ccccn12 [Example 89] ?
[reply] 1 to 10 µg/mL

[ask] Give its MIC value. Item: COCCOCCOc1cc(C)nc(N2CCN(c3ccc(NC(=O)C(=O)c4c(-c5ccccc5)cc5ccccn45)cc3)CC2)c1 [Example 76]
[reply] < 1 µg/mL

[ask] What value of MIC has been recorded for this entry: CCc1ccnc(N2CCN(c3ccc(NC(=O)C(=O)c4c(-c5ccccc5)cc5ccccn45)cc3)CC2)c1 [Example 75]
[reply] < 1 µg/mL

[ask] For the compound shown here, O=C(Nc1cnccc1N1CCN(CCc2ccco2)CC1)C(=O)c1c(-c2ccccc2)cc2ccccn12 [Example 38] , give the reported MIC.
[reply] < 1 µg/mL

###

Exercise: state measured MIC for each of the compounds provided.
Test system: Aspergillus fumigatus AF293
Assay: MIC (YAG medium)
Format: cell-based
Settings: Aspergillus fumigatus; YAG medium; MIC banded into grades; AF293; read-out: MIC A. fumigatus (grade)

[ask] Given the entry Cc1cc(C)nc(CNc2ccc(NC(=O)C(=O)c3c(-c4ccccc4)cc4ccccn34)cc2)c1 , report its measured MIC.
[reply] < 1 µg/mL

[ask] Quick check: MIC of COc1ccc(NC(=O)C(=O)c2c(C)c(-c3ccccc3)c3ccccn23)cc1 ?
[reply] > 10 µg/mL

[ask] Please report the recorded MIC for CC(C)c1nccn1CCOC(=O)C(C)(C)c1cccc(NC(=O)C(=O)c2c(-c3ccccc3)cc3ccccn23)c1 .
[reply] > 10 µg/mL

[ask] Any idea what MIC was measured for CC(C)c1ncc(C(C)(C)c2ccc(NC(=O)C(=O)c3c(-c4ccccc4)cc4ccccn34)cc2)n1C ?
[reply] > 10 µg/mL

[ask] Given the compound CCC(CC)N1CCN(c2ccc(NC(=O)C(=O)c3c(-c4ccccc4Cl)cc4ccccn34)cn2)CC1 , what is its reported MIC?
[reply] < 1 µg/mL

[ask] Given Cc1cc(C)nc(N2CCN(c3ccc(NC(=O)C(=O)c4c(C5CCN(C)CC5)cc5ccccn45)cc3)CC2)c1 , state its recorded MIC.
[reply] > 10 µg/mL

[ask] # query: MIC of entry CC(C)c1nc(C(C)(C)c2ccc(NC(=O)C(=O)c3c(-c4ccccc4)cc4ccccn34)cc2)cn1C
[reply] 1 to 10 µg/mL

[ask] Endpoint output: MIC of CC(C)c1ncc(C(C)(C)c2cccc(NC(=O)C(=O)c3c(-c4ccccc4)cc4ccccn34)c2)n1C . Value?
[reply] > 10 µg/mL

[ask] Could you tell me which MIC is on file for O=C(Nc1ccc(N2CCN(c3cccc(NCCO)n3)CC2)cc1)C(=O)c1c(-c2ccccc2)cc2ccccn12 ?
[reply] < 1 µg/mL

[ask] Look up MIC: Cc1cc(C)nc(N2CCN(c3ccc(NC(=O)C(=O)c4c(-c5ccccc5)cc5ccccn45)cc3C)CC2)c1
[reply] < 1 µg/mL

[ask] Look at this compound and give its reported MIC. CON=C1CCN(c2ccc(NC(=O)C(=O)c3c(-c4ccccc4)cc4ccccn34)cc2)CC1
[reply] < 1 µg/mL

[ask] Please report the recorded MIC for Cc1cc(C)nc(N2CCN(c3ccc(NC(=O)C(=O)c4c(-c5ccccc5)cc5ccccn45)c(C)c3)CC2)c1 .
[reply] < 1 µg/mL

[ask] Dear colleague, I am looking for the recorded MIC of the following compound: Cc1cccc(N2CCN(c3ccc(NC(=O)C(=O)c4c(-c5ccccc5)cc5ccccn45)cc3)CC2)n1
[reply] < 1 µg/mL

[ask] I'd like to know its MIC. The compound in question is Cc1cc(C)nc(N2CCN(c3ccc(NC(=O)C(=O)c4c(-c5ccccc5)cc5ccccn45)cc3)CC2)n1
[reply] < 1 µg/mL

[ask] Reported MIC for O=C(Nc1ccc(N2CCN(c3cccnc3)CC2)cc1)C(=O)c1c(-c2ccccc2)cc2ccccn12 : what is it?
[reply] < 1 µg/mL
